Where these numbers come from: patent US20220073617A1

- measured-on: T1, monovalent hVISTA-ECD (human VISTA extracellular domain with His tail) (human, UniProt Q9H7M9 33-193)
- T1 construct: analyte flowed over captured antibody; also called huVISTA-His
- procedure-details: SPR, pH 6.0
koff overview

# binder, unit-descriptor, koff
records = [
    ("P1-065064 (41F11_LC_Mutant: V29D/A64G/R91T) (antibody, V domains shown, Same printed description as P1-063001 under another ID; also called P1-065064-1) VH: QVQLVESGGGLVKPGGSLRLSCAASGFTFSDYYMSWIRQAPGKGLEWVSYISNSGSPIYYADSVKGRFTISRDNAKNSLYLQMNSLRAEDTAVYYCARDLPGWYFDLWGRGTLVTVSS VL: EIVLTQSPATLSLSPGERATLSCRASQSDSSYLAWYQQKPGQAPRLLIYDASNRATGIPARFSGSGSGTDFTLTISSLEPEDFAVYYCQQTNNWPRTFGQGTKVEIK", "s⁻¹", 0.0013),
    ("P1-063125 (41F11_HC_Mutant: T28P/Y50W/S55E/Y100E) (antibody, V domains shown, Kabat positions; also called P1-063125-5) VH: QVQLVESGGGLVKPGGSLRLSCAASGFPFSDYYMSWIRQAPGKGLEWVSWISNSGEPIYYADSVKGRFTISRDNAKNSLYLQMNSLRAEDTAVYYCARDLPGWEFDLWGRGTLVTVSS VL: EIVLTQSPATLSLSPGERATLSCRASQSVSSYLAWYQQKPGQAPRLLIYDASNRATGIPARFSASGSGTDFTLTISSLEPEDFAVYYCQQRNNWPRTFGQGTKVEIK", "s⁻¹", 0.00079),
]
